assay: Observed inhibitory activity against various Actinomycetes strains; settings: actinomycetaceae
Label rule, in plain words: Log 1/MIC of 6 and up is fulfilled, under 6 is not fulfilled.

Compound Smiles: CCCCc1ccc(O)c(C(=O)Nc2ccc(Br)cc2)c1
Class Name: fulfilled
--
Compound Smiles: O=C(Nc1ccc(Br)cc1)c1ccccc1O
Class Name: not fulfilled
--
Compound Smiles: CCC(=O)c1ccc(O)c(C(=O)Nc2ccc(Br)cc2)c1
Class Name: not fulfilled
--
Compound Smiles: CCCCCCCCCC(=O)c1ccc(O)c(C(=O)Nc2ccc(Br)cc2)c1
Class Name: fulfilled
--
Compound Smiles: Cc1cc(C(=O)Nc2ccc(Br)cc2)c(O)c([N+](=O)[O-])c1
Class Name: not fulfilled
--
Compound Smiles: Cc1ccc(O)c(C(=O)Nc2ccc(Br)cc2)c1
Class Name: not fulfilled
--
Compound Smiles: CCCCCCCCCCCC(=O)c1ccc(O)c(C(=O)Nc2ccc(Br)cc2)c1
Class Name: fulfilled
--
Compound Smiles: CCCCCC(=O)c1ccc(O)c(C(=O)Nc2ccc(Br)cc2)c1
Class Name: not fulfilled
